Here, compounds appear alongside pIC50 reported for Steroid 17-alpha-hydroxylase/17,20 lyase (Rattus norvegicus) in the literature.
pIC50: −log10 of the molar value.

CCC(C(c1ccc2nc(NC(C)=O)sc2c1)n1ccnc1)N(C)CC (centres unmarked) ... > 5.30
COc1cc2ccc(C(O)(c3c[nH]nn3)C(C)C)cc2cc1OC (centres unmarked) ... 6.74
CC(O)(c1ccncc1)c1cnc(-c2ccc(Cl)c(C#N)c2)s1 (centres unmarked) ... > 7.30
COc1ccc(-c2cccc(C(C)n3ccnc3)n2)cc1 (centres unmarked) ... > 7.30
CC(c1ccc(-c2ccccc2F)cn1)n1ccnc1 (centres unmarked) ... > 7.30

For every listed record, write down its pIC50.
1. CC(C)C(O)(c1ccncn1)c1ccc2c(C(F)(F)F)c(-c3cccs3)ccc2n1 (centres unmarked)
2. CCC(c1ccc(-c2cccc(C#N)c2)cn1)n1ccnc1 (centres unmarked)
3. CC(O)(c1ccncc1)c1ccc(-c2ccc(C#N)nc2)cn1 (centres unmarked)
4. CCC(c1ccc(-c2ccc(CO)cc2)cn1)n1ccnc1 (centres unmarked)
5. CCC(C(c1ccc2nc(Br)sc2c1)n1ccnc1)N(C)C (centres unmarked)
6. COc1ccc(-c2ccc(C(C)n3ccnc3)nc2)cc1 (centres unmarked)

1: 5.24; 2: > 7.30; 3: > 7.30; 4: > 7.30; 5: > 5.30; 6: 6.70 to 7.30

Each compound below has a reported value. Please supply its pIC50.
1. CC(C)C(c1ccc2cc(-c3ccc(F)cc3)ccc2n1)n1ccnn1 (centres unmarked)
2. COc1ccc(-c2ccc(C(C)(C)n3ccnc3)nc2)cc1
3. COc1ccc(-c2ncc(C(C)n3ccnc3)s2)cn1 (centres unmarked)
4. CC(O)(c1ccncc1)c1ccc(-c2ccc(F)cc2)cn1 (centres unmarked)
5. CC(C)C(c1ccc2cc(OC(F)F)c(OC(F)F)cc2c1)n1ncnn1 (centres unmarked)
6. CC(C)C(O)(c1ccncn1)c1ccc2cc(OC(F)F)ccc2n1 (centres unmarked)
7. CCC(C(c1ccc2nc(C(=N)OC)sc2c1)n1ccnc1)N(C)C (centres unmarked)

7.38
6.70 to 7.30
6.70 to 7.30
> 7.30
6.40
7.10
> 5.30

Please state, for each entry, its recorded pIC50.
1. CC(O)(c1ccncc1)c1cnc(-c2ccc(C(F)(F)F)c(Cl)c2)s1 (centres unmarked)
2. CC(O)(c1ccncc1)c1ncc(-c2ccc(F)cc2)s1 (single isomer, unassigned; (+))

["> 7.30", "> 7.30"]
